# Test system: MDA-MB-436 cells
# assay: CTG Protocol (MDA-MB-436 GI50), antiproliferative activity
# Type: cell-based, human
# measurement-parameters: Homo sapiens, 168 h; MDA-MB-436 cells (BRCA1 mutation), 7-day incubation, CellTiter-Glo
GI50: recorded values

COc1ncnc(C2CC2)c1-c1ncc2ccc(=O)n(Cc3ccc(-c4nc(C(F)(F)F)cn4C)cc3F)c2n1 | 0.01 to 0.1 µM

(Q) Fill in the blank: the reported GI50 of COc1ncnc(C2CC2)c1-c1ncc2cc(-c3nnc(C)o3)c(=O)n(Cc3ccc(-c4nc(C(F)(F)F)cn4C4CC4)cc3)c2n1 is ____.
(A) 0.01 to 0.1 µM

(Q) Fill in the blank: the reported GI50 of COc1ncnc(C2CC2)c1-c1ncc2ccc(=O)n(Cc3ccc(-c4cncc(C(F)(F)F)n4)cc3)c2n1 is ____.
(A) 0.1 to 1 µM

(Q) Fill in the blank: the reported GI50 of COc1cccnc1-c1ccc(Cn2c(=O)ccc3cnc(-c4c(OC)ncnc4C4CC4)nc32)cc1 is ____.
(A) 0.01 to 0.1 µM

(Q) Fill in the blank: the reported GI50 of COc1ncnc(C2CC2)c1-c1ncc2cc(-c3c(C)cnn3C)c(=O)n(Cc3ccc(-c4nc(C(F)(F)F)cn4C(C)C)cc3)c2n1 is ____.
(A) 0.01 to 0.1 µM

(Q) Fill in the blank: the reported GI50 of COc1ncnc(C2CC2)c1-c1ncc2ccc(=O)n(Cc3ccc(-c4nccc(C(F)(F)F)n4)cc3)c2n1 is ____.
(A) > 1 µM

(Q) Fill in the blank: the reported GI50 of COc1ncnc(C2CC2)c1-c1ncc2ccc(=O)n(Cc3ccc(-c4nc(C(F)(F)F)cn4C)cn3)c2n1 is ____.
(A) > 1 µM

(Q) Fill in the blank: the reported GI50 of CCn1cc(C(F)(F)F)nc1-c1ccc(Cn2c(=O)c(C(=O)N(C)C)cc3cnc(-c4c(OC)ncnc4C4CC4)nc32)cc1 is ____.
(A) 0.01 to 0.1 µM

(Q) Fill in the blank: the reported GI50 of COc1ncnc(C2CC2)c1-c1ncc2cc(-c3ncnn3C)c(=O)n(Cc3ccc(-c4nc(C(F)(F)F)cn4C(C)C)cc3)c2n1 is ____.
(A) 0.01 to 0.1 µM

(Q) Fill in the blank: the reported GI50 of [2H]C([2H])([2H])n1cc(C(F)(F)F)nc1-c1ccc(Cn2c(=O)ccc3cnc(-c4c(OC)ncnc4C4CC4)nc32)cc1 is ____.
(A) < 0.01 µM

(Q) Fill in the blank: the reported GI50 of Cc1cnn(C(C)C)c1-c1ncc2ccc(=O)n(Cc3ccc(-c4nc(C(F)(F)F)cn4C)cc3)c2n1 is ____.
(A) 0.01 to 0.1 µM

(Q) Fill in the blank: the reported GI50 of COc1ncnc(C2CC2)c1-c1ncc2ccc(=O)n(Cc3ccc(-c4nc(C(F)(F)F)cn4C4COC4)cc3)c2n1 is ____.
(A) 0.01 to 0.1 µM

(Q) Fill in the blank: the reported GI50 of COc1ncnc(C2CC2)c1-c1ncc2c(=O)n(C)c(=O)n(Cc3ccc(-c4nc(C(F)(F)F)cn4C(C)C)cc3)c2n1 is ____.
(A) 0.01 to 0.1 µM

(Q) Fill in the blank: the reported GI50 of COc1ncnc(C2CC2)c1-c1ncc2ccc(=O)n(C(C)c3ccc(-c4nc(C(F)(F)F)cn4C)cc3)c2n1 (stereo not drawn) is ____.
(A) 0.01 to 0.1 µM

(Q) Fill in the blank: the reported GI50 of COc1ncnc(C2CC2)c1-c1ncc2ccc(=O)n(Cc3ccc(-c4ncc(F)cc4OC(C)C)cc3)c2n1 is ____.
(A) 0.01 to 0.1 µM
